Numbers sourced from paper PMC8321398.

Assay name: In vivo efficacy, mouse model of juvenile (21-day old) S. mansoni infection
Protocol conditions: female, CD1, plasma; mouse, Juvenile infection, oral 6.25x2 mg/kg (12 h apart), formulation corn oil; read-out: Plasma conc @24 h (efficacy experiment)
Readout kind: concentration at 24 h (ng/mL)
Respond numerically; units are ng/mL and should not be typed.

If you can, please state the reported concentration at 24 h value of CC(C)c1cc(-c2cn3c(-c4ccc5[nH]ncc5c4F)c(C4CC4)nc3cn2)ccc1F [LSHTM-3686] . 37.2

###

Assay name: In vivo efficacy, mouse model of adult (42-day old) S. mansoni infection
Protocol conditions: female, CD1, mouse, plasma, po, 6.25 mg/kg, mouse, Adult infection, oral 6.25 mg/kg, formulation corn oil; read-out: Plasma conc @24 h (efficacy experiment)
Readout kind: concentration at 24 h (ng/mL)
Respond numerically; units are ng/mL and should not be typed.

If you can, please state the reported concentration at 24 h value of Fc1ccc(-c2cn3c(-c4ccc5[nH]ncc5c4F)c(C(F)(F)F)nc3cn2)cc1C(F)(F)C(F)(F)F [LSHTM-3645] . 1010

###

Assay name: Mouse pharmacokinetics;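 further: three mice per experiment, dosed in 10% DMSO with 50 mM Na2HPO4 buffer plus Tween-80, plasma levels quantified by LC-MS against a calibration line prepared in blank matrix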
Format: in vivo
Protocol conditions: male, Swiss albino, plasma, 2.5 mg/kg oral, mixture of 5 compounds, calculated values > 100% shown as 100
Readout kind: bioavailability (%)
Respond numerically; units are % and should not be typed.

Solved entries (count: 6):
- Query smiles: "CC(C)c1nc2cnc(-c3ccc(F)c(C(F)(F)F)c3)cn2c1-c1ccc2[nH]ncc2c1F"
  Unit string: "%"
  bioavailability: 60
- Query smiles: "CC(C)c1nc2cnc(-c3ccc(F)c(C(F)(F)F)c3)cn2c1-c1c(F)cc(O)cc1F"
  Unit string: "%"
  bioavailability: 50
- Query smiles: "CC(C)c1cc(-c2cn3c(-c4ccc5[nH]ncc5c4F)c(C4CC4)nc3cn2)ccc1F"
  Unit string: "%"
  bioavailability: 100
- Query smiles: "CC(C)c1cc(-c2cn3c(-c4ccc5[nH]ncc5c4F)c(C(F)(F)F)nc3cn2)ccc1F"
  Unit string: "%"
  bioavailability: 57.1
- Query smiles: "Fc1c(-c2c(C(F)(F)F)nc3cnc(-c4cccc(C(F)(F)C(F)(F)F)c4)cn23)ccc2[nH]ncc12"
  Unit string: "%"
  bioavailability: 100
- Query smiles: "CC(C)Oc1cc(-c2cn3c(-c4ccc5[nH]ncc5c4F)c(C(F)(F)F)nc3cn2)ccc1F"
  Unit string: "%"
  bioavailability: 100

If you can, please state the reported bioavailability value of `CC(C)c1nn2cnc(-c3ccc(F)c(C(F)(F)F)c3)cc2c1-c1ccc2[nH]ncc2c1F` . 76

Would you mind doing `Fc1ccc(-c2cn3c(-c4ccc5[nH]ncc5c4F)c(C(F)(F)F)nc3cn2)cc1C(F)(F)C(F)(F)F` as well? 100

Would you mind doing `Fc1ccc(-c2cn3c(-c4ccc5[nH]ncc5c4F)c(C(F)(F)F)nc3cn2)cc1C(F)(F)F` as well? 83

###

Assay name: Kinetic solubility
Assay type: physicochemical
Protocol conditions: pH 7.4; read-out: Kinetic solubility, pH 7.4
Readout kind: solubility kinetic at 24 h (µM)
Respond numerically; units are µM and should not be typed.

- Molecule: "CC(C)c1nc2cnc(-c3ccc(F)c(C(F)(F)F)c3)cn2c1-c1c(F)cc(O)cc1F [LSHTM-3520]"
  Value observed: 12.7
- Molecule: "CC(C)c1cc(-c2cn3c(-c4ccc5[nH]ncc5c4F)c(C(F)(F)F)nc3cn2)ccc1F [LSHTM-3661]"
  Value observed: 0.04
- Molecule: "Fc1ccc(-c2cn3c(-c4ccc5[nH]ncc5c4F)c(C(F)(F)F)nc3cn2)cc1C(F)(F)C(F)(F)F [LSHTM-3645]"
  Value observed: 0.264
- Molecule: "Fc1c(-c2c(C(F)(F)F)nc3cnc(-c4cccc(C(F)(F)C(F)(F)F)c4)cn23)ccc2[nH]ncc12 [LSHTM-3608]"
  Value observed: 0.704

If you can, please state the reported solubility kinetic at 24 h value of CC(C)c1nc2cnc(-c3ccc(F)c(C(F)(F)F)c3)cn2c1-c1ccc2[nH]ncc2c1F [LSHTM-3604] . 0.834

Would you mind doing CC(C)c1cc(-c2cn3c(-c4ccc5[nH]ncc5c4F)c(C4CC4)nc3cn2)ccc1F [LSHTM-3686] as well? 0.885

Would you mind doing Fc1ccc(-c2cn3c(-c4ccc5[nH]ncc5c4F)c(C(F)(F)F)nc3cn2)cc1C(F)(F)F [LSHTM-3642] as well? 0.854
